Where these numbers come from: patent US20210363269A1

subject.of.test: T1, BALB/c mouse SIRP-α D1 domain (mouse (BALB/c strain))
T1 chain: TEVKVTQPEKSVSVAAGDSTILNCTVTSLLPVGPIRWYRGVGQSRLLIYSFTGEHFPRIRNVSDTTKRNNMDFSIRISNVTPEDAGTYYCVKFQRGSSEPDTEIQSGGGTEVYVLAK
assay.remarks: SPR, ProteOn, antibody on chip
reported.metric: Kd (nM)
Answers are plain numbers, in nM.

binder	endpoint.unit	recorded.result
AB27c (antibody, mouse IgG2a, V domains shown, Full-length mouse IgG2a) VH: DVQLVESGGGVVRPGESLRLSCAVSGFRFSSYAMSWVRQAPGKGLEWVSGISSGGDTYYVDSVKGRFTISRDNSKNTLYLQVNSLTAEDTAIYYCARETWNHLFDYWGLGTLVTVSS VL: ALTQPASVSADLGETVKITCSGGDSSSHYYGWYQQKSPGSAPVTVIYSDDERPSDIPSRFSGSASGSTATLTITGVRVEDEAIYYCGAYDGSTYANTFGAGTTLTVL	nM	15

Proceeding to the next binder to report its Kd.
*Q* Entry under review: AB21c (antibody, mouse IgG2a, V domains shown, Full-length mouse IgG2a) VH: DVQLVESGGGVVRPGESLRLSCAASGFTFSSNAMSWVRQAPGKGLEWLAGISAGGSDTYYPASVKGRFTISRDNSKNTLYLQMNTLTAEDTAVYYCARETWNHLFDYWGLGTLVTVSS VL: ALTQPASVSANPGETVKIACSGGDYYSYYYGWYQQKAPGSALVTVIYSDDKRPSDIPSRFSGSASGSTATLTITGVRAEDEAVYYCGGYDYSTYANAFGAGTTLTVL . Reported Kd?
*A* 1.34
